test system: HepG2 cells; assay: Determination of cytotoxicity (HepG2 cells, resazurin assay, 4 days); assay type: cell-based; settings: read-out: Experiment 3 Cytotoxicity CC50
measurement-label: CC50

// query CC50 value for entry CC(C)[C@H]1C=Cc2c(cn(C)c2C(=O)Nc2ccc(F)c(F)c2)S(=N)(=O)N1 (single isomer, unassigned) [Compound 10a2]
> 30 µM

Sample C[C@@H](OCc1ccccc1)[C@H]1CCc2c(cn(C)c2C(=O)Nc2ccc(F)c(C#N)c2)S(=N)(=O)N1 (single isomer, unassigned) [Compound 20ccc2] — what was its CC50?
> 30 µM

Which measured CC50 value corresponds to CC(C)[C@H]1C=Cc2c(cn(C)c2C(=O)Nc2cc(F)nc(C#N)c2)S(=N)(=O)N1 (single isomer, unassigned) [Compound 10e2] ?
> 30 µM

* * *

system: HBV DNA in the supernatant of HepG2.2.15; assay: Determination of anti-HBV activity in HepG2.2.15 cell (HBV DNA in supernatant by qPCR); type: cell-based, Hepatitis B virus; conditions: Hepatitis B virus, HepG2.2.15, read-out: Experiment 2 Cell experiment EC50
measurement-label: EC50

EC50 for CC(C)[C@H]1C=Cc2c(cn(C)c2C(=O)Nc2ccc(F)c(C#N)c2)S(=N)(=O)N1 (single isomer, unassigned) ?
100 to 1000 nM
